B1: FCHO1 (parent)
chain: HLELTRKLQDLIKDVLRYGEEQLK

- Variants of: B1
- TEST_DETAILS: protein stability index of a GFP-peptide fusion (GPS, HEK-293T) (PSI 1-6); higher = more stable;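 also: lentivirally expressed fusions sorted by FACS into six bins by GFP to DsRed ratio, PSI derived from sequencing read proportions per bin multiplied by bin number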
- COND: c terminus: a fixed tail appended
Reported protein stability index is given for each of the following variants.

# VAR, protein stability index
rows = [
    ("K24H", 3.16),
    ("K13M", 2.22),
    ("L11A", 2.5),
    ("L2G", 3.28),
    ("K13N", 1.9),
    ("E3L", 2.7),
    ("L23G", 2.57),
    ("G19L", 2.03),
    ("I12N", 4.18),
    ("L4C", 4.01),
    ("D10A", 3.54),
]
